# System tested: Estrogen receptor (Homo sapiens, UniProt P03372)
# Sequence (P03372 whole entry): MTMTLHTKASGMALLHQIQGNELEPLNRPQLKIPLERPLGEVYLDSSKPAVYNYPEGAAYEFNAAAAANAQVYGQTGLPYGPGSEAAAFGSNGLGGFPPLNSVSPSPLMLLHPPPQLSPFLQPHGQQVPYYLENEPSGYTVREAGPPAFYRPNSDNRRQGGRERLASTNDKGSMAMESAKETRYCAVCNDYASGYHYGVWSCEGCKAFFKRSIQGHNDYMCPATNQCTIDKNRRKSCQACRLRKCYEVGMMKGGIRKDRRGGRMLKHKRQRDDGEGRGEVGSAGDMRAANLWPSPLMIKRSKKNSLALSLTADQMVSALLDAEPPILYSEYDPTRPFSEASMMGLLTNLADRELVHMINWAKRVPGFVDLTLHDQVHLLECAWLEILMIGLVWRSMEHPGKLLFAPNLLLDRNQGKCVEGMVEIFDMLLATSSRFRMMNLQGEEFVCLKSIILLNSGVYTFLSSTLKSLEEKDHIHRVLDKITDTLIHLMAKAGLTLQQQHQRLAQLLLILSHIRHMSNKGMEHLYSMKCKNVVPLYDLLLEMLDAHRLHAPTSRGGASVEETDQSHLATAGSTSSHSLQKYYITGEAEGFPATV
# Test summary: Downregulation of ER-alpha expression in human T47D cells measured after 5 days by Western blot analysis
# Assay type: cell-based
Measurement kind: IC50 (nM)
Give the quantity in nM, number only.

Prompt line: Look up IC50: C[C@]12CC[C@@H]3c4ccc(B(O)O)cc4C[C@@H](CCCCCCCCC[S+]([O-])CCCC(F)(F)C(F)(F)F)[C@H]3[C@@H]1CC[C@@H]2O (stereo partly specified)
Response line: 7.8

====

# System tested: Estrogen receptor (Homo sapiens, UniProt P03372)
# Sequence (P03372 whole entry): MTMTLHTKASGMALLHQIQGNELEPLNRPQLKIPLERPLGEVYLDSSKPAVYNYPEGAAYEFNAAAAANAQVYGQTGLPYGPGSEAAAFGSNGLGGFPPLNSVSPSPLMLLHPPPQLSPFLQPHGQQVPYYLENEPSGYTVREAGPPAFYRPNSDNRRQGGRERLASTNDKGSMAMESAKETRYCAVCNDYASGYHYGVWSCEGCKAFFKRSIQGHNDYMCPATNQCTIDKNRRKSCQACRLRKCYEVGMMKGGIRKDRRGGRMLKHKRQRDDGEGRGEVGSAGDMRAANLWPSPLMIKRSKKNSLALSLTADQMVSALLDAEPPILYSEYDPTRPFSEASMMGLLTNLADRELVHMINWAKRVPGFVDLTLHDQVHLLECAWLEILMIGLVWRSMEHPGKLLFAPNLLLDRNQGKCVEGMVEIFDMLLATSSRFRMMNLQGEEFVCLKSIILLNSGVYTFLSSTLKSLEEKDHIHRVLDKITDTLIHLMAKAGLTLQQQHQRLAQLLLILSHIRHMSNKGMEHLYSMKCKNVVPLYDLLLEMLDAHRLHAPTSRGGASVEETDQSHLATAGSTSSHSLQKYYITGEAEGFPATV
# Test summary: Displacement of fluoromone ligand from recombinant ER-alpha (unknown origin) by LanthaScreen TR-FRET assay
Measurement kind: IC50 (nM)
Record the value in nM, omitting the unit from your answer.

Prompt line: Hi! What's the reported IC50 for C[C@]12CC[C@@H]3c4ccc(B(O)O)cc4C[C@@H](CCCCCCCCC[S+]([O-])CCCC(F)(F)C(F)(F)F)[C@H]3[C@@H]1CC[C@@H]2O (stereo partly specified) on Estrogen receptor (Homo sapiens, UniProt P03372)?
Response line: 4.1
